Listed next: entries and their corresponding AC50.
Target under test: Kappa-type opioid receptor (Homo sapiens, UniProt P41145); also: assay procedure not described here
Sequence (P41145 whole entry): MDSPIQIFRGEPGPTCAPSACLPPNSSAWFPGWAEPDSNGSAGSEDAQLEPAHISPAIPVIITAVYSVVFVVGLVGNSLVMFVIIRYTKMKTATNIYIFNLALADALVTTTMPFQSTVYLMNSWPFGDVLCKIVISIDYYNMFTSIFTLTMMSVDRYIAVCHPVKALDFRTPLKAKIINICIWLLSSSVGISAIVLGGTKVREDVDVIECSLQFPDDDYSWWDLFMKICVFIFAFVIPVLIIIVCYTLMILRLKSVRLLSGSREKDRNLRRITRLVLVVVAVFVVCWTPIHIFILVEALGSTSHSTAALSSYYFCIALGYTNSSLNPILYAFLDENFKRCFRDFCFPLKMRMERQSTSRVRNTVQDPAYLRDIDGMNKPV

Molecule	Val
CC(=O)O[C@H]1C[C@@H]2CC[C@@H]3[C@H](CC[C@@]4(C)[C@H]3C[C@H]([N+]3(C)CCCCC3)[C@@H]4OC(C)=O)[C@@]2(C)C[C@@H]1[N+]1(C)CCCCC1 [PANCURONIUM]	> 10 µM

*Q* I am curious: what AC50 value has been reported for CCC(=O)OCC(=O)[C@@]1(OC(=O)CC)[C@@H](C)C[C@H]2[C@@H]3CCC4=CC(=O)C=C[C@]4(C)[C@@]3(F)[C@@H](O)C[C@@]21C [BETAMETHASONE DIPROPIONATE] ?
*A* > 30 µM

*Q* Moving on to O=c1oc2ccccc2c(O)c1Cc1c(O)c2ccccc2oc1=O [DICUMAROL]
*A* > 10 µM

Every entry's value here was drawn from ChEMBL document CHEMBL5291721.
